- subject_of_test: STAT3 (Homo sapiens)
- Construct: plasmid pSTAT3-TA-luc), which contains a stably operating STAT3 promoter; endogenous in cells
- assay_summary: STAT3 reporter gene assay (luciferase), LNCaP stable cell line (pSTAT3-TA-luc), IL-6 stimulation
- Assay type: cell-based
parameter: IC50 (µM)

Example compounds with recorded IC50:
# compound, subject_of_test, parameter, units_text, reported_result
rows = [
    ("CS(=O)(=O)Nc1ccc2sc(C(=O)Nc3cc(Cl)cc(Oc4ccc(Cl)cc4)c3)cc2c1 [Example 445]", "STAT3 (Homo sapiens)", "IC50", "µM", 0.066),
    ("CCOc1cc(OC(F)(F)F)cc(C(C)(C)c2cc(Br)cc(NC(=O)c3cc4cc(NS(C)(=O)=O)ncc4s3)c2)c1 [Example 61]", "STAT3 (Homo sapiens)", "IC50", "µM", 0.066),
    ("CS(=O)(=O)Nc1ccc2cc(C(=O)Nc3cccc(S(=O)(=O)c4ccccc4)c3)[nH]c2c1 [Example 395]", "STAT3 (Homo sapiens)", "IC50", "µM", 2.1),
    ("CC(C)Oc1cc(CN2CCOCC2)cc(C(C)(C)c2cc(Cl)cc(NC(=O)c3cc4cc(NS(C)(=O)=O)ccc4s3)c2)c1 [Example 126]", "STAT3 (Homo sapiens)", "IC50", "µM", 0.1),
    ("CS(=O)(=O)Nc1ccc2sc(C(=O)Nc3cc(Cl)cc(-c4ccsc4)c3)cc2c1 [Example 332]", "STAT3 (Homo sapiens)", "IC50", "µM", 0.061),
    ("CS(=O)(=O)c1ccc2cc(C(=O)Nc3cc(Br)cc(-c4ccc(F)cc4F)c3)[nH]c2c1 [Example 304]", "STAT3 (Homo sapiens)", "IC50", "µM", 4),
    ("C=CCOc1cc(OC(F)(F)F)cc(C(C)(C)c2cc(Cl)cc(NC(=O)c3cc4cc(NS(C)(=O)=O)ccc4s3)c2)c1 [Example 78]", "STAT3 (Homo sapiens)", "IC50", "µM", 0.017),
    ("CS(=O)(=O)Nc1ccc2cc(C(=O)Nc3cc(OC(F)F)cc(-c4ccc(F)cc4F)c3)[nH]c2c1 [Example 369]", "STAT3 (Homo sapiens)", "IC50", "µM", 0.7),
]

A. COc1cc(OC(F)(F)F)cc(C(C)(C)c2cc(Cl)cc(NC(=O)c3cc4cc(NS(C)(=O)=O)cnc4s3)c2)c1 [Example 57]
B. CNS(=O)(=O)Nc1ccc2cc(C(=O)Nc3cccc(C(C)(C)c4ccc(F)cc4)c3)[nH]c2c1 [Example 5]
Please indicate which has the smaller reported IC50: A , or B . The response must carry the label of the picked entry.
A
(A: 0.067 µM, B: 1.2 µM)

----------
- subject_of_test: STAT3 (Homo sapiens, UniProt P40763)
- Construct: plasmid pSTAT3-TA-luc), which contains a stably operating STAT3 promoter; endogenous in cells
- Sequence (P40763 whole entry): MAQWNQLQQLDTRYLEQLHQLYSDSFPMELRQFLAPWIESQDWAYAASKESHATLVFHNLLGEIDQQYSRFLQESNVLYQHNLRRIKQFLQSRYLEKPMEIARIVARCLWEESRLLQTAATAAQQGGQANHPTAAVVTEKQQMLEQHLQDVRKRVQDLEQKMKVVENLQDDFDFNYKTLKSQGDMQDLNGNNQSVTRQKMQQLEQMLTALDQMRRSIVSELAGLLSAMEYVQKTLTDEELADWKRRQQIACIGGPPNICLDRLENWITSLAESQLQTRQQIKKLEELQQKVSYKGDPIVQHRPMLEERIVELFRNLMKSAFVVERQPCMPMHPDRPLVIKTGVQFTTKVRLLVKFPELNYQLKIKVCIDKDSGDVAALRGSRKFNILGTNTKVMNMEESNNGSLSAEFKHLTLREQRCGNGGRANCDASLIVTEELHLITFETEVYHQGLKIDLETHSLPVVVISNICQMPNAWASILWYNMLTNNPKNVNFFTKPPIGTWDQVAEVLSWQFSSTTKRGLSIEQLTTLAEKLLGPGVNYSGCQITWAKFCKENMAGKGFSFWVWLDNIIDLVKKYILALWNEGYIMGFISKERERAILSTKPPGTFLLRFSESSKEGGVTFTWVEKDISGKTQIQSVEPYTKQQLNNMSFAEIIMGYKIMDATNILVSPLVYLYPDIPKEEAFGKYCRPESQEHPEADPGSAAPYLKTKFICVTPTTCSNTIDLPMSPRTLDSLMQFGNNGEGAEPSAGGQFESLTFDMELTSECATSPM
- assay_summary: STAT3 reporter gene assay (luciferase), LNCaP stable cell line (pSTAT3-TA-luc), IL-6 stimulation
- Type: cell-based
parameter: IC50 (µM)

A. CS(=O)(=O)Nc1ccc2sc(C(=O)Nc3cc(Cl)cc(C4(c5ccc(Cl)cc5)CC4)c3)cc2c1 [Example 432]
B. Cc1c(C(=O)Nc2cccc(-c3ccc(F)cc3F)c2)sc2ccc(NS(C)(=O)=O)cc12 [Example 243]
Hello, I am sorting some records. Could you say if A or B has the smaller IC50 value? Return value: the label identifying the chosen record.
A
